Hello, the source for this data is patent US20230139171A1, in case you need it.

- TARGET: human TLR9 (Homo sapiens, UniProt Q9NR96)
- Sequence (Q9NR96 26-1032): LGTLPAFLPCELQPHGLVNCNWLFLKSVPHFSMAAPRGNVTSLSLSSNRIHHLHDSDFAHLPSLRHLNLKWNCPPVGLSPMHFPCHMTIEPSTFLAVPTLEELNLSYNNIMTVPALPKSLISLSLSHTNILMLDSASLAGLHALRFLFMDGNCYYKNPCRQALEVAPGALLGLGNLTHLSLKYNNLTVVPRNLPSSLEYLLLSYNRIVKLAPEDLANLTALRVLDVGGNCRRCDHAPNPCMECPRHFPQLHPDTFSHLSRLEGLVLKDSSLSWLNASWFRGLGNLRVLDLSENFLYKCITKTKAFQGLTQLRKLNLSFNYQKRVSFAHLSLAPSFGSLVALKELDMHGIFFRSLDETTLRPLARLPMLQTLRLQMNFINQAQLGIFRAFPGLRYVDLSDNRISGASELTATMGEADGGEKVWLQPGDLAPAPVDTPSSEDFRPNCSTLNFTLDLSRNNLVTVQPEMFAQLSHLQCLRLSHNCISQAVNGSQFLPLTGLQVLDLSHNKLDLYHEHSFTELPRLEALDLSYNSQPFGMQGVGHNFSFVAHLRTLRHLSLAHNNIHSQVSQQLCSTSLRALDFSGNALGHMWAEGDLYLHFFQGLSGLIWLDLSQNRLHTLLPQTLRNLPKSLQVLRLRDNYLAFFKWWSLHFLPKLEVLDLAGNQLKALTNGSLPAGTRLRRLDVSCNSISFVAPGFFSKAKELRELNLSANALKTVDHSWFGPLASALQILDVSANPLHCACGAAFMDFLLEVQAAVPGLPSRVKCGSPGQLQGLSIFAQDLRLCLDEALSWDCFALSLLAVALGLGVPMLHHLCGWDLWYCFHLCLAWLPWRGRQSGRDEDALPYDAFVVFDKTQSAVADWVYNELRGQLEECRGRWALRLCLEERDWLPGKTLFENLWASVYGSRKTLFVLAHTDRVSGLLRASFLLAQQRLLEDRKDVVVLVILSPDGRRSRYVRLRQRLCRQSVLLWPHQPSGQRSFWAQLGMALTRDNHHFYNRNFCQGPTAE
- PROCEDURE TEXT: TLR9 inhibition reporter assay (HEK-Blue cells, SEAP reporter, ODN2006 stimulation)
- REPORTED CONDITIONS: HEK-Blue cells overexpressing human TLR9, SEAP reporter, ODN2006 5 nM
QUANTITY KIND: pIC50
One number for each entry, as −log10 of the molar value.

These recorded examples may help you get a feel for the data.
> print(dat)
                                   compound                                    target  reported.value
1  COc1cc(-c2[nH]c3sc(C4CCC(N(C)CCS(C)(=O)=O)CC4)nc3c2C(C)C)cn2ncnc12 (single isomer, unassigned) [Example 165]  human TLR9 (Homo sapiens, UniProt Q9NR96)            4.64
2  Cc1c(-c2[nH]c3sc(C4CCC(N5CC6(CCOCC6)C5)CC4)nc3c2C(C)C)cn2ncnc2c1C (single isomer, unassigned) [Example 239]  human TLR9 (Homo sapiens, UniProt Q9NR96)            5.00
3  Cc1c(-c2[nH]c3sc(N4CCN(C5CCOCC5)C[C@@H]4C)nc3c2C(C)C)cn2ncnc2c1C [Example 350]  human TLR9 (Homo sapiens, UniProt Q9NR96)            4.66
4  Cc1c(-c2[nH]c3sc(C4CCC(NCC5(S(C)(=O)=O)CC5)CC4)nc3c2C(C)C)cn2ncnc2c1C (single isomer, unassigned) [Example 215]  human TLR9 (Homo sapiens, UniProt Q9NR96)            4.83
5  COc1cc(-c2[nH]c3sc(C4CCC(N)CC4)nc3c2C(C)C)cn2ncnc12 (single isomer, unassigned) [Example 92]  human TLR9 (Homo sapiens, UniProt Q9NR96)            5.39

Report pIC50 for every entry below.
1. Cc1c(-c2[nH]c3sc(C4CCC(N5CCC5)CC4)nc3c2C(C)C)cn(C)c(=O)c1C (single isomer, unassigned) [Example 255]
2. Cc1cc2ncnn2cc1-c1[nH]c2sc(C3CCC(NCC(C)(C)O)CC3)nc2c1C(C)C (single isomer, unassigned) [Example 156]
3. COC1CN(C2CCC(c3nc4c(C(C)C)c(-c5cn6ncnc6cc5C)[nH]c4s3)CC2)C1 (single isomer, unassigned) [Example 150]
4. Cc1cc(-c2[nH]c3sc(C4CCC(N5CC6(COC6)C5)CC4)nc3c2C(C)C)cn2ncnc12 (single isomer, unassigned) [Example 136]

result:
4.82
4.96
5.55
4.37

* * *

- TARGET: human TLR7 (Homo sapiens)
- Construct: host or cells: HEK-Blue cells
- PROCEDURE TEXT: TLR7 inhibition reporter assay (HEK-Blue cells, SEAP reporter, gardiquimod stimulation)
- Assay type: cell-based
- REPORTED CONDITIONS: HEK-Blue cells overexpressing human TLR7, SEAP reporter, gardiquimod 7.5 μM; read-out: TLR7 IC50
QUANTITY KIND: IC50
Give the number first and the unit second.

> print(dat)
                                   compound  quantity.kind  reported.value
1  CCC1(NC2CCC(c3nc4c(C(C)C)c(-c5cc(OC)c6ncnn6c5)[nH]c4s3)CC2)COC1 (single isomer, unassigned) [Example 94]           IC50         1.94 nM
2  COc1cc(-c2[nH]c3sc(C4CCNCC4)nc3c2C(C)C)cn2ncnc12           IC50         2.01 nM
3  COc1cc(-c2[nH]c3sc(C4CCC(NCC(C)(C)OC)CC4)nc3c2C(C)C)cn2ncnc12 (single isomer, unassigned) [Example 86]           IC50         1.34 nM
4  Cc1c(-c2[nH]c3sc(N4CCC(NCC5(C)COC5)CC4)nc3c2C(C)C)cn2ncnc2c1C           IC50         4.94 nM
5  Cc1c(-c2[nH]c3sc(C(=O)NCCC4CCN(C)CC4)nc3c2C(C)C)cn2ncnc2c1C           IC50         11.1 nM

Report IC50 for every entry below.
1. Cc1cc(-c2[nH]c3sc(C4CCN(C(C)C)CC4)nc3c2C(C)C)cc(C)n1
2. Cc1c(-c2[nH]c3sc(C4CCC(NC5CCS(=O)(=O)C5)CC4)nc3c2C(C)C)cn2ncnc2c1C (single isomer, unassigned) [Example 232]

result:
1. 25.6 nM
2. 4.19 nM

* * *

Assign IC50 to each entry below.
- TARGET: human TLR8 (Homo sapiens)
- Construct: host or cells: HEK-Blue cells
- Sequence (Q9NR97 27-1041): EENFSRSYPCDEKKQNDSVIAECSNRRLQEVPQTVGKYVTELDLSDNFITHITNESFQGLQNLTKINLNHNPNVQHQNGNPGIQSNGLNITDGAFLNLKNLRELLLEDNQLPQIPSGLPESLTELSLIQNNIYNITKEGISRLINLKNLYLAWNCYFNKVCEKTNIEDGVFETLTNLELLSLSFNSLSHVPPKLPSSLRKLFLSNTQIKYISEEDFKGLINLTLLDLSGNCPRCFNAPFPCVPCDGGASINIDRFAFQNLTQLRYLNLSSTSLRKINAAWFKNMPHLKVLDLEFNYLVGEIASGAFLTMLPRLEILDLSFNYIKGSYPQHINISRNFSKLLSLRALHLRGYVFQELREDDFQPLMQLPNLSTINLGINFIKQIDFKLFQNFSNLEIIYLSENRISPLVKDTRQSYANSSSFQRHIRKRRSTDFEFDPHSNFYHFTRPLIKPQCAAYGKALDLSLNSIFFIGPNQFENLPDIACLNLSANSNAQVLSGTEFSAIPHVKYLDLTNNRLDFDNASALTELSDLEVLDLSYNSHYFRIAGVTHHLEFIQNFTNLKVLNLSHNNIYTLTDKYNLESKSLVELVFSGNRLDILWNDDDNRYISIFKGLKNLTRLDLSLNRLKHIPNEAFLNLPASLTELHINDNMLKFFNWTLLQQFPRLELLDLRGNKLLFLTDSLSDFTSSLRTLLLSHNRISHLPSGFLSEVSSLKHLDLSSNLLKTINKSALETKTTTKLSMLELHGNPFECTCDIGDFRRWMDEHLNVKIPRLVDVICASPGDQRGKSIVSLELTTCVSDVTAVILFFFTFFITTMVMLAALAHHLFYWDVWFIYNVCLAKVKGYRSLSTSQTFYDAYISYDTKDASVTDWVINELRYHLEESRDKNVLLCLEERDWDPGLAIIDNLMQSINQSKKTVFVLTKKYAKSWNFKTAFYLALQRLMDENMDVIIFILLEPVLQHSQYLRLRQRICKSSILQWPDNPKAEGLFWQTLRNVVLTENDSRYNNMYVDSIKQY
- PROCEDURE TEXT: TLR8 inhibition reporter assay (HEK-Blue cells, SEAP reporter, R848 stimulation)
- Assay type: cell-based
- REPORTED CONDITIONS: HEK-Blue cells overexpressing human TLR8, SEAP reporter, R848 15.9 μM; read-out: TLR8 IC50
One number for each entry, in nM.

These recorded examples may help you get a feel for the data.
> print(dat)
                                   compound  reported.value
1  Cc1c(-c2[nH]c3sc(N4CCC(NCC(C)(C)O)CC4)nc3c2C(C)C)cn2ncnc2c1C [Example 291]            0.39
2  Cc1c(-c2[nH]c3sc(C4CCC(NCC5(S(C)(=O)=O)CC5)CC4)nc3c2C(C)C)cn2ncnc2c1C (single isomer, unassigned) [Example 215]               6

Next compound, please.
query: IC50 for CC(C)c1c(-c2cn(C)c3ncccc23)[nH]c2sc(C3CCC(NC45CC(C4)C5)CC3)nc12 (single isomer, unassigned) [Example 176] ?
result: 23.7

* * *

Assign pIC50 to each entry below.
- TARGET: human TLR7 (Homo sapiens, UniProt Q9NYK1)
- Construct: host or cells: HEK-Blue cells
- Sequence (Q9NYK1 27-1049): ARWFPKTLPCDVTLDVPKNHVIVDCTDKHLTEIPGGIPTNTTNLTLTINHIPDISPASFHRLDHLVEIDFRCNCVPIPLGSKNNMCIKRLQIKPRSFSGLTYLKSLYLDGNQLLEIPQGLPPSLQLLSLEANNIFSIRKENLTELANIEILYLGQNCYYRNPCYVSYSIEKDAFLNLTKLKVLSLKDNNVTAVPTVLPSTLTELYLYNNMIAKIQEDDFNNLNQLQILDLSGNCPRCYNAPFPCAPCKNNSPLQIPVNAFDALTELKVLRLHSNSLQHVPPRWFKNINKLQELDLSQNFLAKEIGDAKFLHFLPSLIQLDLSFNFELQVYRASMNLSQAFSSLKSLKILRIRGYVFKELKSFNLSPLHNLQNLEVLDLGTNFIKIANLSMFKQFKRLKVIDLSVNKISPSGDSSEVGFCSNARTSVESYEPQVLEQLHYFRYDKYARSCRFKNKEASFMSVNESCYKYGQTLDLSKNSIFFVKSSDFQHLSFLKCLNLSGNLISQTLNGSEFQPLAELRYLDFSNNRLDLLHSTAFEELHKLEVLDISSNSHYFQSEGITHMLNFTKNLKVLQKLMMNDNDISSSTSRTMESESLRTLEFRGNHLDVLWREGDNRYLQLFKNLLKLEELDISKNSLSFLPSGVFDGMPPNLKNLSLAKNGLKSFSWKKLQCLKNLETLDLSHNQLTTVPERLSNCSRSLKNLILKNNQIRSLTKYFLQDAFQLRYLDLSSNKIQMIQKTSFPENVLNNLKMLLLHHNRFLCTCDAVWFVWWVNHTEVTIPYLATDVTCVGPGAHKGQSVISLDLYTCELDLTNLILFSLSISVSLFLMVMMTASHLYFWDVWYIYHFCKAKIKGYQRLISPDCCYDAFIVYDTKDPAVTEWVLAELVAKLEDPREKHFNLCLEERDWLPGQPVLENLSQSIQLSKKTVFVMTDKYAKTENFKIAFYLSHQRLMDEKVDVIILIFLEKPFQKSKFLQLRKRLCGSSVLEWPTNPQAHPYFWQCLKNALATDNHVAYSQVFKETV
- PROCEDURE TEXT: TLR7 inhibition reporter assay (HEK-Blue cells, SEAP reporter, gardiquimod stimulation)
- Assay type: cell-based
- REPORTED CONDITIONS: HEK-Blue cells overexpressing human TLR7, SEAP reporter, gardiquimod 7.5 μM; read-out: TLR7 IC50
One number for each entry, as −log10 of the molar value.

These recorded examples may help you get a feel for the data.
> print(dat)
                                   compound  quantity.kind  reported.value
1  Cc1c(-c2[nH]c3sc(C(=O)N(C)CCN(C)C)nc3c2C(C)C)cn2ncnc2c1C          pIC50            8.63
2  Cc1c(-c2[nH]c3sc(C4CCC(NC5COC5)CC4)nc3c2C(C)C)cn2ncnc2c1C (single isomer, unassigned) [Example 185]          pIC50            8.13

Next compound, please.
query: pIC50 for CNC(=O)CN1CCC(c2nc3c(C(C)C)c(-c4cn5ncnc5c(C)c4C)[nH]c3s2)CC1 ?
result: 8.36
